details: in 2-butanone, 298.15 K
VALUE TYPE: solubility (mole fraction)
Give a plain numeric answer without units written out.

Input line: Determine its reported solubility (mole fraction): NCC(CC(=O)O)c1ccc(Cl)cc1 (stereo unspecified)
Output line: 0.000703

----------
conditions: in ethanol, 303.15 K
VALUE TYPE: solubility (mole fraction)
Give a plain numeric answer without units written out.

Input line: Determine its reported solubility (mole fraction): NCC(CC(=O)O)c1ccc(Cl)cc1 (stereo unspecified)
Output line: 4.33e-05

----------
settings: in n-butanol, 303.15 K
VALUE TYPE: solubility (mole fraction)
Give a plain numeric answer without units written out.

Input line: Determine its reported solubility (mole fraction): NCC(CC(=O)O)c1ccc(Cl)cc1 (stereo unspecified)
Output line: 9.06e-05

----------
details: in 1,4-dioxane, 293.15 K
VALUE TYPE: solubility (mole fraction)
Give a plain numeric answer without units written out.

Input line: Determine its reported solubility (mole fraction): NCC(CC(=O)O)c1ccc(Cl)cc1 (stereo unspecified)
Output line: 0.000568

----------
settings: in 1,4-dioxane, 313.15 K
VALUE TYPE: solubility (mole fraction)
Give a plain numeric answer without units written out.

Input line: Determine its reported solubility (mole fraction): NCC(CC(=O)O)c1ccc(Cl)cc1 (stereo unspecified)
Output line: 0.000888

----------
conditions: in DMAc, 313.15 K
VALUE TYPE: solubility (mole fraction)
Give a plain numeric answer without units written out.

Input line: Determine its reported solubility (mole fraction): NCC(CC(=O)O)c1ccc(Cl)cc1 (stereo unspecified)
Output line: 0.104

----------
settings: in n-propanol, 303.15 K
VALUE TYPE: solubility (mole fraction)

Input line: Determine its reported solubility (mole fraction): NCC(CC(=O)O)c1ccc(Cl)cc1 (stereo unspecified)
Output line: 6.1e-05

----------
details: in methanol, 288.15 K
VALUE TYPE: solubility (mole fraction)
Give a plain numeric answer without units written out.

Input line: Determine its reported solubility (mole fraction): NCC(CC(=O)O)c1ccc(Cl)cc1 (stereo unspecified)
Output line: 0.000133

----------
settings: in 2-butanone, 313.15 K
VALUE TYPE: solubility (mole fraction)
Give a plain numeric answer without units written out.

Input line: Determine its reported solubility (mole fraction): NCC(CC(=O)O)c1ccc(Cl)cc1 (stereo unspecified)
Output line: 0.00101

----------
conditions: in ethyl acetate, 283.15 K
VALUE TYPE: solubility (mole fraction)
Give a plain numeric answer without units written out.

Input line: Determine its reported solubility (mole fraction): NCC(CC(=O)O)c1ccc(Cl)cc1 (stereo unspecified)
Output line: 0.00427

----------
conditions: in DMF, 273.15 K
VALUE TYPE: solubility (mole fraction)
Give a plain numeric answer without units written out.

Input line: Determine its reported solubility (mole fraction): NCC(CC(=O)O)c1ccc(Cl)cc1 (stereo unspecified)
Output line: 0.0998

----------
details: in n-butanol, 273.15 K
VALUE TYPE: solubility (mole fraction)
Give a plain numeric answer without units written out.

Input line: Determine its reported solubility (mole fraction): NCC(CC(=O)O)c1ccc(Cl)cc1 (stereo unspecified)
Output line: 5.73e-05

----------
conditions: in ethanol, 298.15 K
VALUE TYPE: solubility (mole fraction)
Give a plain numeric answer without units written out.

Input line: Determine its reported solubility (mole fraction): NCC(CC(=O)O)c1ccc(Cl)cc1 (stereo unspecified)
Output line: 3.85e-05

----------
details: in toluene, 288.15 K
VALUE TYPE: solubility (mole fraction)
Give a plain numeric answer without units written out.

Input line: Determine its reported solubility (mole fraction): NCC(CC(=O)O)c1ccc(Cl)cc1 (stereo unspecified)
Output line: 0.00639

----------
details: in n-propanol, 308.15 K
VALUE TYPE: solubility (mole fraction)

Input line: Determine its reported solubility (mole fraction): NCC(CC(=O)O)c1ccc(Cl)cc1 (stereo unspecified)
Output line: 6.85e-05

----------
details: in DMF, 293.15 K
VALUE TYPE: solubility (mole fraction)
Give a plain numeric answer without units written out.

Input line: Determine its reported solubility (mole fraction): NCC(CC(=O)O)c1ccc(Cl)cc1 (stereo unspecified)
Output line: 0.106

----------
conditions: in toluene, 313.15 K
VALUE TYPE: solubility (mole fraction)
Give a plain numeric answer without units written out.

Input line: Determine its reported solubility (mole fraction): NCC(CC(=O)O)c1ccc(Cl)cc1 (stereo unspecified)
Output line: 0.00831

----------
conditions: in n-butanol, 308.15 K
VALUE TYPE: solubility (mole fraction)
Give a plain numeric answer without units written out.

Input line: Determine its reported solubility (mole fraction): NCC(CC(=O)O)c1ccc(Cl)cc1 (stereo unspecified)
Output line: 9.72e-05

----------
details: in n-butanol, 313.15 K
VALUE TYPE: solubility (mole fraction)
Give a plain numeric answer without units written out.

Input line: Determine its reported solubility (mole fraction): NCC(CC(=O)O)c1ccc(Cl)cc1 (stereo unspecified)
Output line: 0.000104

----------
conditions: in ethyl acetate, 288.15 K
VALUE TYPE: solubility (mole fraction)

Input line: Determine its reported solubility (mole fraction): NCC(CC(=O)O)c1ccc(Cl)cc1 (stereo unspecified)
Output line: 0.00436

----------
settings: in DMF, 283.15 K
VALUE TYPE: solubility (mole fraction)

Input line: Determine its reported solubility (mole fraction): NCC(CC(=O)O)c1ccc(Cl)cc1 (stereo unspecified)
Output line: 0.102

----------
details: in n-propanol, 283.15 K
VALUE TYPE: solubility (mole fraction)
Give a plain numeric answer without units written out.

Input line: Determine its reported solubility (mole fraction): NCC(CC(=O)O)c1ccc(Cl)cc1 (stereo unspecified)
Output line: 3.47e-05

----------
conditions: in n-butanol, 293.15 K
VALUE TYPE: solubility (mole fraction)
Give a plain numeric answer without units written out.

Input line: Determine its reported solubility (mole fraction): NCC(CC(=O)O)c1ccc(Cl)cc1 (stereo unspecified)
Output line: 7.68e-05

----------
settings: in 1,4-dioxane, 318.15 K
VALUE TYPE: solubility (mole fraction)

Input line: Determine its reported solubility (mole fraction): NCC(CC(=O)O)c1ccc(Cl)cc1 (stereo unspecified)
Output line: 0.000996

----------
conditions: in acetone, 313.15 K
VALUE TYPE: solubility (mole fraction)
Give a plain numeric answer without units written out.

Input line: Determine its reported solubility (mole fraction): NCC(CC(=O)O)c1ccc(Cl)cc1 (stereo unspecified)
Output line: 0.00034

----------
conditions: in methanol, 318.15 K
VALUE TYPE: solubility (mole fraction)
Give a plain numeric answer without units written out.

Input line: Determine its reported solubility (mole fraction): NCC(CC(=O)O)c1ccc(Cl)cc1 (stereo unspecified)
Output line: 0.000198

----------
settings: in ethanol, 283.15 K
VALUE TYPE: solubility (mole fraction)
Give a plain numeric answer without units written out.

Input line: Determine its reported solubility (mole fraction): NCC(CC(=O)O)c1ccc(Cl)cc1 (stereo unspecified)
Output line: 2.58e-05

----------
conditions: in ethyl acetate, 308.15 K
VALUE TYPE: solubility (mole fraction)

Input line: Determine its reported solubility (mole fraction): NCC(CC(=O)O)c1ccc(Cl)cc1 (stereo unspecified)
Output line: 0.00476

----------
conditions: in methanol, 278.15 K
VALUE TYPE: solubility (mole fraction)
Give a plain numeric answer without units written out.

Input line: Determine its reported solubility (mole fraction): NCC(CC(=O)O)c1ccc(Cl)cc1 (stereo unspecified)
Output line: 0.000116

----------
details: in n-propanol, 318.15 K
VALUE TYPE: solubility (mole fraction)
Give a plain numeric answer without units written out.

Input line: Determine its reported solubility (mole fraction): NCC(CC(=O)O)c1ccc(Cl)cc1 (stereo unspecified)
Output line: 8.77e-05

----------
conditions: in n-propanol, 293.15 K
VALUE TYPE: solubility (mole fraction)
Give a plain numeric answer without units written out.

Input line: Determine its reported solubility (mole fraction): NCC(CC(=O)O)c1ccc(Cl)cc1 (stereo unspecified)
Output line: 4.61e-05

----------
details: in 1,4-dioxane, 298.15 K
VALUE TYPE: solubility (mole fraction)
Give a plain numeric answer without units written out.

Input line: Determine its reported solubility (mole fraction): NCC(CC(=O)O)c1ccc(Cl)cc1 (stereo unspecified)
Output line: 0.000632

----------
details: in ethyl acetate, 303.15 K
VALUE TYPE: solubility (mole fraction)
Give a plain numeric answer without units written out.

Input line: Determine its reported solubility (mole fraction): NCC(CC(=O)O)c1ccc(Cl)cc1 (stereo unspecified)
Output line: 0.00467

----------
settings: in n-butanol, 288.15 K
VALUE TYPE: solubility (mole fraction)
Give a plain numeric answer without units written out.

Input line: Determine its reported solubility (mole fraction): NCC(CC(=O)O)c1ccc(Cl)cc1 (stereo unspecified)
Output line: 7.11e-05

----------
conditions: in toluene, 278.15 K
VALUE TYPE: solubility (mole fraction)

Input line: Determine its reported solubility (mole fraction): NCC(CC(=O)O)c1ccc(Cl)cc1 (stereo unspecified)
Output line: 0.00569

----------
details: in ethyl acetate, 278.15 K
VALUE TYPE: solubility (mole fraction)
Give a plain numeric answer without units written out.

Input line: Determine its reported solubility (mole fraction): NCC(CC(=O)O)c1ccc(Cl)cc1 (stereo unspecified)
Output line: 0.00419

The reported measurements were obtained from BigSolDB 2.1.
